- Test system: Carrageenin edema in rat's paw
- experiment-summary: Carrageenin Edema Test in Rat's Paw (anti-inflammatory activity, Table 1)
- Assay type: in vivo
- measurement-conditions: 100 mg/kg oral, hydrochloride, rat

molecule	inhibition in vivo at 100 mg/kg (%)
CN1CCN(CCCNc2nn(CCCN3CCCC3)c3ccc(Cl)cc23)CC1 [(114)]	30
CCN(CC)CCCNc1nn(CCCN(CC)CC)c2c(O)cccc12 [(122)]	31
CC(CCNc1n[nH]c2ccc(O)cc12)N(C)C (stereo not drawn) [(75)]	34
CCN(CC)CCCn1nc(N)c2cccc(I)c21 [(28)]	54
Nc1n[nH]c2ccc(I)cc12 [(165), 3-Amino-5-iodoindazole]	55
Nc1nn(CCc2ccccc2)c2ccccc12 [Compound C-2, 1-(2-phenylethyl)-3-aminoindazole, reference compound]	7

###

- System: Carrageenin edema in rat's paw
- experiment-summary: Carrageenin Edema Test in Rat's Paw (anti-inflammatory activity, Table 1)
- Type: in vivo
- measurement-conditions: 100 mg/kg oral, hydrochloride, rat
Quick rule: inhibition in vivo at 100 mg/kg of at least 40% means satisfied, below that means not satisfied.

molecule	qualitative-label
Clc1ccc2[nH]nc(NCCCCCCN3CCCCC3)c2c1	not satisfied
Nc1nn(CCCN2CCC(O)CC2)c2ccc(Cl)cc12	not satisfied
CC(CCn1nc(N)c2cc(O)ccc21)N1CCCCC1 (stereo not drawn)	satisfied
CCN(CC)CCCNc1n[nH]c2ccc(Cl)cc12	satisfied
CCN(CC)CCCNc1n[nH]c2ccc(C)cc12	satisfied
CCN(CC)CCCn1nc(NCCCN2CCCCC2)c2cc(Cl)ccc21	not satisfied

###

- System: Carrageenin edema in rat's paw
- experiment-summary: Carrageenin Edema Test in Rat's Paw (anti-inflammatory activity, Table 1)
- Format: in vivo
- measurement-conditions: 100 mg/kg oral, hydrochloride, rat
- Experimental: An anti-inflammatory activity was measured by orally administering 100 mg/kg of a hydrochloride of the indazole derivative of this invention as set forth in Table 1 to an animal in accordance with the standard method of Carrageenin Edema Test in Rat's Paw described in C. A. Winter et al., Proc. Soc. Exp. Biol. Med., 111, 544 (1962).

compound	inhibition in vivo at 100 mg/kg (%)
CCN(CC)CCCn1nc(N)c2cccc(O)c21	57
Nc1nn(CCCN2CCCCCC2)c2ccc(Cl)cc12	38
CN1CCN(CCCNc2n[nH]c3ccc(Cl)cc23)CC1	29
CCN(CC)CCCn1nc(NCCCCCCN2CCCCC2)c2cc(O)ccc21	21
Nc1n[nH]c2ccc(O)cc12 [(162), 3-Amino-5-hydroxyindazole]	45
CCN(CC)CCCn1nc(N)c2cc(I)ccc21	57
Nc1n[nH]c2cccc(O)c12 [(161), 3-Amino-4-hydroxyindazole]	41
CC1CCCC(C)N1CCCNc1nn(CCCN2CCOCC2)c2ccc(O)cc12 (stereo not drawn)	32
CCCn1nc(N)c2ccccc21 [Compound C-1, 1-propyl-3-aminoindazole, reference compound]	7
CCN(CC)CCCNc1nn(CCCN(CC)CC)c2ccc(C)cc12	29
CCN(CC)CCCn1nc(N)c2cc(C)ccc21	58
Nc1n[nH]c2cc(O)ccc12 [(163), 3-Amino-6-hydroxyindazole]	43
Clc1ccc2[nH]nc(NCCCN3CCCCCC3)c2c1	57
CCN(CC)CCCNc1nn(CCCN(CC)CC)c2c(N)cc(N)cc12	28
CCN(CC)CCCNc1nn(CCC(C)N2CCCCC2)c2ccc(O)cc12 (stereo not drawn)	29
CN1CCN(CCCn2nc(N)c3cc(O)ccc32)CC1	24
CCN(CC)CCCn1nc(N)c2cc(OC)ccc21	56
CC(CCn1nc(NCCCN2CCCCC2)c2cc(Cl)ccc21)N(C)C (stereo not drawn)	29
c1ccc2c(NCCCN3CCOCC3)n[nH]c2c1	51
Oc1ccc2[nH]nc(NCCCN3CCC(Cl)CC3)c2c1	63
CC1CCCCN1CCCNc1n[nH]c2ccc(O)cc12 (stereo not drawn)	47

###

- Test system: Carrageenin edema in rat's paw
- experiment-summary: Carrageenin Edema Test in Rat's Paw (anti-inflammatory activity, Table 1)
- Assay type: in vivo
- measurement-conditions: 100 mg/kg oral, hydrochloride, rat
- Protocol: An anti-inflammatory activity was measured by orally administering 100 mg/kg of a hydrochloride of the indazole derivative of this invention as set forth in Table 1 to an animal in accordance with the standard method of Carrageenin Edema Test in Rat's Paw described in C. A. Winter et al., Proc. Soc. Exp. Biol. Med., 111, 544 (1962).
Quick rule: inhibition in vivo at 100 mg/kg of at least 30% means True, below that means False.

compound	qualitative-label
CN1CCN(CCCNc2n[nH]c3ccc(O)cc23)CC1	False
CCN(CC)CCCn1nc(N)c2c(Cl)cccc21	True
CC1CCCCN1CCCNc1nn(CCCN2CCCC2)c2ccc(Cl)cc12 (stereo not drawn)	True
CC(CCn1nc(NCCC(C)N2CCCCC2)c2cc(O)ccc21)N(C)C (stereo not drawn)	False
CCN(CC)CCCn1nc(NCCC(C)N2CCCCC2)c2cc(Cl)ccc21 (stereo not drawn)	False
CCN(CC)CCCn1nc(N)c2cccc(Cl)c21	True
Nc1n[nH]c2c(I)cccc12	True
CCN(CC)C(CCn1nc(N)c2cc(Cl)ccc21)CC(C)C (stereo not drawn)	True
CCN(CC)CCCn1nc(N)c2cc(N)cc(N)c21	True
CC1CCCCN1CCCn1nc(N)c2cc(O)ccc21 (stereo not drawn)	True
Nc1nn(CCCN2CCCC2)c2ccc(Cl)cc12	True
Nc1nn(CCCN2CCC(Cl)CC2)c2ccc(Cl)cc12	True
CC(CCNc1nn(CCC(C)N2CCCCC2)c2ccc(O)cc12)N(C)C (stereo not drawn)	False
CCN(CC)CCCn1nc(N)c2ccc(O)cc21	True

###

- experiment-summary: in vivo
- measurement-conditions: mouse, ip, intraperitoneal, hydrochloride, male ddy mice
LD50 values, listed per item

compound	LD50
CCN(CC)CCCn1nc(NCCCCCCN2CCCCC2)c2cc(O)ccc21	198 mg/kg
CCN(CC)CCCNc1nn(CCC(C)N(C)C)c2ccc(Cl)cc12 (stereo not shown)	118 mg/kg
CCN(CC)CCCNc1nn(CCCN2CCOCC2)c2ccc(Cl)cc12	301 mg/kg
CC1CCCC(C)N1CCCNc1n[nH]c2ccc(Cl)cc12 (stereo not shown)	310 mg/kg
CCN(CC)CCCn1nc(NCCCCCCN2CCCCC2)c2cc(Cl)ccc21	229 mg/kg
CCN(CC)CCCn1nc(N)c2cccc(O)c21	297 mg/kg
CCN(CC)CCCNc1n[nH]c2ccc(Cl)cc12	211 mg/kg
Nc1n[nH]c2c(O)cccc12 [(164), 3-Amino-7-hydroxyindazole]	231 mg/kg
Nc1nn(CCCN2CCCCC2)c2ccc(Cl)cc12	211 mg/kg
CCN(CC)CCCn1nc(N)c2ccc(Cl)cc21	241 mg/kg
Oc1ccc2[nH]nc(NCCCN3CCC(O)CC3)c2c1	134 mg/kg
Nc1n[nH]c2cccc(O)c12 [(161), 3-Amino-4-hydroxyindazole]	211 mg/kg
CC(C)CC(CCNc1n[nH]c2ccc(O)cc12)N1CCCCC1 (stereo not shown)	332 mg/kg
CCN(CC)CCCn1nc(NCCC(C)N2CCCCC2)c2cc(Cl)ccc21 (stereo not shown)	295 mg/kg
CCN(CC)CCCNc1nn(CCCN2CCOCC2)c2ccc(O)cc12	211 mg/kg
CCN(CC)CCCNc1n[nH]c2ccc(C)cc12	231 mg/kg

###

- experiment-summary: in vivo
- measurement-conditions: mouse, ip, intraperitoneal, hydrochloride, male ddy mice
recorded-endpoint: LD50 (mg/kg)

compound	recorded-endpoint	u	recorded-number
Clc1ccc2c(c1)c(NCCCN1CCC(Cl)CC1)nn2CCCN1CCOCC1 [(117)]	LD50	mg/kg	291
CC(C)CC(CCn1nc(N)c2cc(Cl)ccc21)N1CCCCC1 (centres unmarked) [(14)]	LD50	mg/kg	301
CCN(CC)CCCNc1n[nH]c2c(Cl)cccc12 [(48)]	LD50	mg/kg	291
CC1CCCC(C)N1CCCNc1nn(CCCN2CCOCC2)c2ccccc12 (centres unmarked) [(156)]	LD50	mg/kg	301
CCN(CC)CCCn1nc(N)c2ccc(O)cc21 [(25)]	LD50	mg/kg	301
